Recorded values, source patent US20230330254A1.

EC50 values, listed per item
Target: human GLP1R (Homo sapiens, UniProt P43220)
Sequence (P43220 24-463): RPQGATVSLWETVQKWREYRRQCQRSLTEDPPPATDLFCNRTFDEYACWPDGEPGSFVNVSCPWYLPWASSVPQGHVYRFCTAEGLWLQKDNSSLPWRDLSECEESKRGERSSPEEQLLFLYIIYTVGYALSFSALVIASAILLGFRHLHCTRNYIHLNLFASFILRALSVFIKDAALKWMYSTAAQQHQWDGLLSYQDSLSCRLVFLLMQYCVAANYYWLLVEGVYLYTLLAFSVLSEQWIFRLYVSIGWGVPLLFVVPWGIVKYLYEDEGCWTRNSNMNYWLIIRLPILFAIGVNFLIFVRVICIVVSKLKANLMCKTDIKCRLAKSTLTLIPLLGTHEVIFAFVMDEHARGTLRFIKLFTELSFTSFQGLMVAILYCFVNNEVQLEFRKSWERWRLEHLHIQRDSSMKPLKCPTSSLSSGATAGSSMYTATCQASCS
Assay: Luciferase reporter assay, HEK293/CRE-Luc/hGLP1R (Example 17)
Type: cell-based
Set-up: engineered to express full-length human GLP1R, cynomolgus GLP1R; expressed in transfected cells; host or cells: HEK293/CRE-Luc
Conditions: HEK293/CRE-Luc/hGLP1R; payloads and linker-payloads; experiments A-E, M2361 repeated in each; read-out: EC50
# output: bare number, implied unit pM

| Compound | Assayed Target | Unit Label | EC50 |
| --- | --- | --- | --- |
| CCc1cc(OCCCCN)ccc1-c1ccc(C[C@H](NC(=O)[C@H](CC(=O)O)NC(=O)[C@H](CO)NC(=O)[C@@H](NC(=O)[C@](C)(Cc2ccccc2F)NC(=O)[C@@H](NC(=O)CNC(=O)[C@H](Cc2nn[nH]n2)NC(=O)C(C)(C)C(=O)NCCc2cnc[nH]2)[C@@H](C)O)[C@@H](C)O)C(=O)Nc2ccccc2)cc1 | human GLP1R (Homo sapiens, UniProt P43220) | pM | 440 |
| CCc1cc(OCCCCn2cc(COCCOCCOCCOCCNC(=O)OC[C@@H]3[C@@H]4CCC#CCC[C@@H]43)nn2)ccc1-c1ccc(C[C@H](NC(=O)[C@H](CC(=O)O)NC(=O)[C@H](CO)NC(=O)[C@@H](NC(=O)[C@](C)(Cc2ccccc2F)NC(=O)[C@@H](NC(=O)CNC(=O)[C@H](Cc2nn[nH]n2)NC(=O)C(C)(C)C(=O)NCCc2cnc[nH]2)[C@@H](C)O)[C@@H](C)O)C(=O)N[C@@H](CCCc2cc(C)cc(C)c2)C(N)=O)cc1 | human GLP1R (Homo sapiens, UniProt P43220) | pM | 17.4 |
| CCc1cc(OCCCCN)ccc1-c1ccc(C[C@H](NC(=O)[C@H](CC(=O)O)NC(=O)[C@H](CO)NC(=O)[C@@H](NC(=O)[C@](C)(Cc2ccccc2F)NC(=O)[C@@H](NC(=O)CNC(=O)[C@H](Cc2nn[nH]n2)NC(=O)C2(C)CCN(CCc3cnc[nH]3)C2=O)[C@@H](C)O)[C@@H](C)O)C(=O)N[C@@H](CCCc2cc(C)cc(C)c2)C(N)=O)cc1 (stereo in doubt) | human GLP1R (Homo sapiens, UniProt P43220) | pM | 184 |
| CCc1cc(OCCCCNC(=O)[C@H](CO)NC(=O)CNC(=O)CNC(=O)CNC(=O)CNC(=O)C(CO)NC(=O)CNC(=O)CNC(=O)CNC(=O)CN)ccc1-c1ccc(C[C@H](NC(=O)[C@H](CC(=O)O)NC(=O)[C@H](CO)NC(=O)[C@@H](NC(=O)[C@](C)(Cc2ccccc2F)NC(=O)[C@@H](NC(=O)CNC(=O)[C@H](Cc2nn[nH]n2)NC(=O)C(C)(C)C(=O)NCCc2cnc[nH]2)[C@@H](C)O)[C@@H](C)O)C(=O)N[C@@H](CCCc2cc(C)cc(C)c2)C(N)=O)cc1 (some centres unmarked) | human GLP1R (Homo sapiens, UniProt P43220) | pM | 25.5 |

// moving on: another record for EC50
**Q:** Which EC50 value belongs to CCc1cc(OCCCCNC(=O)[C@H](CO)NC(=O)CNC(=O)CNC(=O)CNC(=O)CNC(=O)CCC(=O)N2Cc3ccccc3C#Cc3ccccc32)ccc1-c1ccc(C[C@H](NC(=O)[C@H](CC(=O)O)NC(=O)[C@H](CO)NC(=O)[C@@H](NC(=O)[C@](C)(Cc2ccccc2F)NC(=O)[C@@H](NC(=O)CNC(=O)[C@H](Cc2nn[nH]n2)NC(=O)C(C)(C)C(N)=O)[C@@H](C)O)[C@@H](C)O)C(=O)N[C@@H](CCCc2cc(C)cc(C)c2)C(N)=O)cc1 ?
**A:** 366
